Tested on: human iPS-derived cardiac progenitor cells (CPCs)
Test Name: CPC proliferation assay (nuclear count)
Assay type: cell-based
Recorded Conditions: 10-point concentration response, read-out: EC50, CPC proliferation
Overview of recorded EC50 for various compounds

>  <Compound>
CC1(C)CCC(C)(C)c2cc(C(=O)Nc3ccc(C(=O)O)cc3)ccc21

>  <EC50 (nM)>
5

$$$$
>  <Compound>
CC1=C(/C=C/C(C)=C/C=C/C(C)=C/C(=O)O)C(C)(C)CCC1 [ATRA, all‐trans retinoic acid]

>  <EC50 (nM)>
56

$$$$

* * *

Overview of recorded EC50 for various compounds
System Name: RARA (alpha) ligand binding domain (Homo sapiens)
Test Name: RAR LBD-SRC1-2 coactivator peptide recruitment assay, agonist format, RARA
Assay type: biochemical
Recorded Conditions: read-out: RARα pEC50 (converted)

>  <Smiles Repr>
CC1=C(/C=C/C(C)=C/C=C/C(C)=C/CO)C(C)(C)CCC1

>  <EC50>
> 20 µM

$$$$
>  <Smiles Repr>
Cc1ccc(C2=CC(C)(C)Oc3c(Br)cc(C(=O)Nc4ccc(C(=O)O)c(F)c4)cc32)cc1

>  <EC50>
> 20 µM

$$$$
>  <Smiles Repr>
Cc1cc2c(cc1-c1cc(/C=C/C(=O)O)ccc1O)C(C)(C)CCC2(C)C

>  <EC50>
> 20 µM

$$$$
>  <Smiles Repr>
CC1(C)CCC(C)(C)c2cc(C(=O)Nc3ccc(C(=O)O)c(F)c3)ccc21

>  <EC50>
0.00398 µM

$$$$
>  <Smiles Repr>
CC1(C)CCC(C)(C)c2cc(C3(c4ccc(C(=O)O)cc4)OCCO3)ccc21

>  <EC50>
> 20 µM

$$$$

* * *

System Name: RARA (alpha) ligand binding domain (Homo sapiens, UniProt P10276)
Sequence (P10276 183-417 limits assumed): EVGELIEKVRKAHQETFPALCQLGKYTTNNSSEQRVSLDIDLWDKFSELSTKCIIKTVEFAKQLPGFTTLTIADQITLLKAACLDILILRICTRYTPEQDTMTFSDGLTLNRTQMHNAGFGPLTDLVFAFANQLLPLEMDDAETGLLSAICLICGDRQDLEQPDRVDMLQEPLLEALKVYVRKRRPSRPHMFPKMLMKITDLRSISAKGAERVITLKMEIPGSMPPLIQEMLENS
Test Name: RAR coactivator peptide recruitment assay, antagonist format, RARA
Format: biochemical
Recorded Conditions: read-out: RARα pIC50 (converted)
Overview of recorded IC50 for various molecules

>  <Molecule>
CC1=C(/C=C/C(C)=C/C=C/C(C)=C/CO)C(C)(C)CCC1 [Retinol]

>  <System Name>
RARA (alpha) ligand binding domain (Homo sapiens, UniProt P10276)

>  <IC50>
> 20 µM

$$$$
>  <Molecule>
Cc1cc2c(cc1-c1cc(/C=C/C(=O)O)ccc1O)C(C)(C)CCC2(C)C [CD 3254]

>  <System Name>
RARA (alpha) ligand binding domain (Homo sapiens, UniProt P10276)

>  <IC50>
> 20 µM

$$$$
>  <Molecule>
CC1(C)CCC(C)(C)c2cc(C3(c4ccc(C(=O)O)cc4)OCCO3)ccc21 [SR 11237]

>  <System Name>
RARA (alpha) ligand binding domain (Homo sapiens, UniProt P10276)

>  <IC50>
> 20 µM

$$$$
>  <Molecule>
Cc1ccc(C2=CC(C)(C)Oc3c(Br)cc(C(=O)Nc4ccc(C(=O)O)c(F)c4)cc32)cc1 [AGN 194301]

>  <System Name>
RARA (alpha) ligand binding domain (Homo sapiens, UniProt P10276)

>  <IC50>
0.00251 µM

$$$$

* * *

System: human iPS-derived cardiac progenitor cells (CPCs)
Test Name: CPC proliferation assay (nuclear count)
Format: cell-based
Property: CPC proliferation, result in words

>  <Molecule>
CC1=C(/C=C/C(C)=C\C=C\C(C)=C\C(=O)O)C(C)(C)CCC1 [9‐cis‐retinoic acid]

>  <Property>
CPC proliferation, result in words

>  <Recorded Value>
inactive

$$$$
>  <Molecule>
CC1(C)CCC(C)(C)c2cc(C3(c4ccc(C(=O)O)cc4)OCCO3)ccc21 [SR 11237]

>  <Property>
CPC proliferation, result in words

>  <Recorded Value>
inactive

$$$$
>  <Molecule>
Cc1cc2c(cc1-c1cc(/C=C/C(=O)O)ccc1O)C(C)(C)CCC2(C)C [CD 3254]

>  <Property>
CPC proliferation, result in words

>  <Recorded Value>
inactive

$$$$

src = paper PMC6954720
